# System: HCC-2998 colon
# ASSAY_DETAILS: NCI-60 one-dose screen, 48 h
# ASSAY_CONTEXT: 10 µM unless noted
This is part of a sample that, as a whole, favours compounds with a hit. Of some 83,000 tested, about 20% had one in any assay. Activity calls are given as the source filed them. How the source made its calls: active means growth percent below 10; inactive means the rest.
Could you please pick one outcome from this set? active, inactive

| COMPOUND | LABEL_VALUE |
| --- | --- |
| C=C(CO)[C@@H]1CC[C@]2(COC3CCCCO3)CC[C@]3(C)[C@H](CC[C@@H]4[C@@]5(C)C=C(C=O)C(=O)C(C)(C)[C@@H]5CC[C@]43C)[C@@H]12 (some centres undefined) | active |
| N#Cc1c(-c2ccccc2)c(C#N)c2c(C#N)c(N)nn2c1N | inactive |
| CCN(CC)CCNC(=O)c1ccc(-c2nc3ccc4[nH]ncc4c3c3c2CCCC3)cc1 | inactive |
| CCn1cc(C(=O)NN=C2CCCCCC2)c(=O)c2ccc(C)nc21 | inactive |

Give the logged outcome of this assay for the following compound: CCOC(=O)c1c(C)c2c(n1C)CSc1cc(S(=O)(=O)c3ccccc3)c(=O)[nH]c1-2
inactive

Give the logged outcome of this assay for the following compound: Cn1cc(-c2csc(-c3cn(C(=O)OC(C)(C)C)c4ccccc34)n2)c2ccnc(Cl)c21
inactive

Give the logged outcome of this assay for the following compound: O=c1[nH]cnc2c1C(c1ccc(Br)cc1)c1sc3c(F)cccc3c1O2 (centres undefined)
inactive

Give the logged outcome of this assay for the following compound: Cc1ccc(C)c(-n2c(-c3ccc(Br)cc3)csc2=NC(=O)c2ccccc2F)c1
inactive

Give the logged outcome of this assay for the following compound: Cc1ccc(N=Nc2c(N)nn(-c3ccccc3)c2N)cc1
inactive
